Assay: Differential scanning calorimetry (DSC), glass transition temperature
Type: physicochemical
Excerpt: Differential Scanning Calorimetry (DSC): The compound (3) is excellent in heat resistance. The compound is excellent in heat resistance.
observable: glass transition temperature (Tg) (°C)

compound: Cc1ccc(-c2ccc(N(c3ccc(-c4ccc(C)cc4)cc3)c3cc(N(c4ccc(C)cc4)c4ccc(C)cc4)cc(N(c4ccc(-c5ccc(C)cc5)cc4)c4ccc(-c5ccc(C)cc5)cc4)c3)cc2)cc1
recorded value: 179
--
compound: Cc1ccc(-c2ccc(N(c3ccc(C)cc3)c3cc(N(c4ccc(C)cc4)c4ccc(-c5ccc(C)cc5)cc4)cc(N(c4ccc(C)cc4)c4ccc(-c5ccc(C)cc5)cc4)c3)cc2)cc1 [compound (1), reference compound]
recorded value: 103
--
compound: Cc1ccc(N(c2ccc(C)cc2)c2cc(N(c3ccc(-c4ccccc4)cc3)c3ccc(-c4ccccc4)cc3)cc(N(c3ccc(-c4ccccc4)cc3)c3ccc(-c4ccccc4)cc3)c2)cc1
recorded value: 133
